viability, T/C reference
Tested on: 996289-038-R-J1-PDC spheroid viability
TEST_NAME: Anticancer human tumor 996289-038-R-J1-PDC patient-derived colon adenocarcinoma cell line growth inhibition [PI3K]
CONDITION_DETAILS: second compound 0.316 µM; first compound 0.1 µM; stronger effect = lower value; spheroids with HUVEC and MSC
From the text: Combinatorial screen of targeted agents with the PI3K inhibitors inavolisib, alpelisib, duvelisib, and copanlisib in multi-cell type tumor spheroids A high-throughput screen of multi-cell type tumor spheroids was designed to identify active combinations of targeted small molecules and PI3K pathway inhibitors. […] Compounds. […] If the clinical Cmax for an agent had not been determined, the highest concentration tested was 10 microM. […]
Record the value in %, omitting the unit from your answer.

CNC(=O)c1ccc(N2C(=S)N(c3ccc(C#N)c(C(F)(F)F)c3)C(=O)C2(C)C)cc1F + Cc1nc(NC(=O)N2CCCC2C(N)=O)sc1-c1ccnc(C(C)(C)C(F)(F)F)c1    81

### Prompt Note viability, T/C for the compound shown: Cn1ncc(Cl)c1-c1cc(C(=O)NC(CN)Cc2cccc(F)c2)sc1Cl (stereo not drawn) + Cc1nc(NC(=O)N2CCCC2C(N)=O)sc1-c1ccnc(C(C)(C)C(F)(F)F)c1
### Response 87.5

### Prompt Note viability, T/C for the compound shown: CCN1CCN(Cc2ccc(Nc3ncc(F)c(-c4cc(F)c5nc(C)n(C(C)C)c5c4)n3)nc2)CC1 + CC(Nc1ncnc2nc[nH]c12)c1cc2cccc(Cl)c2c(=O)n1-c1ccccc1
### Response 80.3

---

viability, T/C reference
Tested on: 996289-038-R-J1-PDC spheroid viability
TEST_NAME: Anticancer human tumor 996289-038-R-J1-PDC cell line growth inhibition [PI3K];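 further: spheroids exposed to compounds for seven days before viability read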;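 on viability, T/C: luminescence used as a proxy for viable cell amount; percent viability relative to DMSO vehicle control as 100%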
CONDITION_DETAILS: second compound 0.00316 µM; first compound 0.0316 µM; stronger effect = lower value; spheroids with HUVEC and MSC
Record the value in %, omitting the unit from your answer.

Example entries begin here.
CC(=O)c1c(C)c2cnc(Nc3ccc(N4CCNCC4)cn3)nc2n(C2CCCC2)c1=O + COc1c(OCCCN2CCOCC2)ccc2c3n(c(=NC(=O)c4cnc(N)nc4)nc12)CCN3    97.4
CNC(=O)c1ccc(N2C(=S)N(c3ccc(C#N)c(C(F)(F)F)c3)C(=O)C2(C)C)cc1F + COc1c(OCCCN2CCOCC2)ccc2c3n(c(=NC(=O)c4cnc(N)nc4)nc12)CCN3    103

Now examine the next entry.
### Prompt Note viability, T/C for the compound shown: C[C@@H](NC(=O)c1ncnc(N)c1Cl)c1ncc(C(=O)Nc2cc(C(F)(F)F)c(Cl)cn2)s1 + CC(Nc1ccc2c(c1)OCCn1cc(N3C(=O)OCC3C(F)F)nc1-2)C(N)=O
### Response 115

---

System: 996289-038-R-J1-PDC spheroid viability
TEST_NAME: Anticancer human tumor 996289-038-R-J1-PDC cell line growth inhibition [PI3K];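 further: spheroids exposed to compounds for seven days before viability read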
CONDITION_DETAILS: curve of first compound; second compound 0.0316 µM; spheroids with HUVEC and MSC
pIC50 reference
The read-out pIC50 is expressed as -log10 of concentration in moles per litre.

Example entries begin here.
Cn1ncc(Cl)c1-c1cc(C(=O)NC(CN)Cc2cccc(F)c2)sc1Cl (stereo not given) + Cc1nc(NC(=O)N2CCCC2C(N)=O)sc1-c1ccnc(C(C)(C)C(F)(F)F)c1    5.01
Cn1cnc2c(F)c(Nc3ccc(Br)cc3Cl)c(C(=O)NOCCO)cc21 + COc1c(OCCCN2CCOCC2)ccc2c3n(c(=NC(=O)c4cnc(N)nc4)nc12)CCN3    7.30
CCCS(=O)(=O)Nc1ccc(F)c(C(=O)c2c[nH]c3ncc(-c4ccc(Cl)cc4)cc23)c1F + Cc1nc(NC(=O)N2CCCC2C(N)=O)sc1-c1ccnc(C(C)(C)C(F)(F)F)c1    5.23

### Prompt Note pIC50 for the compound shown: CC1(C)CCC(CN2CCN(c3ccc(C(=O)NS(=O)(=O)c4ccc(NCC5CCOCC5)c([N+](=O)[O-])c4)c(Oc4cnc5[nH]ccc5c4)c3)CC2)=C(c2ccc(Cl)cc2)C1 + Cc1nc(NC(=O)N2CCCC2C(N)=O)sc1-c1ccnc(C(C)(C)C(F)(F)F)c1
### Response 5.01

### Prompt Note pIC50 for the compound shown: Cn1nccc1Nc1nccc(-c2ccn(C(CO)c3ccc(Cl)c(F)c3)c(=O)c2)n1 (stereo not given) + CC(Nc1ccc2c(c1)OCCn1cc(N3C(=O)OCC3C(F)F)nc1-2)C(N)=O
### Response 5.01

### Prompt Note pIC50 for the compound shown: Cn1ncc(Cl)c1-c1cc(C(=O)NC(CN)Cc2cccc(F)c2)sc1Cl (stereo not given) + COc1c(OCCCN2CCOCC2)ccc2c3n(c(=NC(=O)c4cnc(N)nc4)nc12)CCN3
### Response 5.76

### Prompt Note pIC50 for the compound shown: C#Cc1c(F)ccc2cc(O)cc(-c3ncc4c(N5CC6CCC(C5)N6)nc(OCC56CCCN5CC(F)C6)nc4c3F)c12 (stereo not given) + Cc1nc(NC(=O)N2CCCC2C(N)=O)sc1-c1ccnc(C(C)(C)C(F)(F)F)c1
### Response 5.78

### Prompt Note pIC50 for the compound shown: Cn1nccc1Nc1nccc(-c2ccn(C(CO)c3ccc(Cl)c(F)c3)c(=O)c2)n1 (stereo not given) + COc1c(OCCCN2CCOCC2)ccc2c3n(c(=NC(=O)c4cnc(N)nc4)nc12)CCN3
### Response 5.23

### Prompt Note pIC50 for the compound shown: Cn1ncc(Cl)c1-c1cc(C(=O)NC(CN)Cc2cccc(F)c2)sc1Cl (stereo not given) + CC(Nc1ccc2c(c1)OCCn1cc(N3C(=O)OCC3C(F)F)nc1-2)C(N)=O
### Response 5.34

---

Test system: 996289-038-R-J1-PDC spheroid viability
TEST_NAME: Anticancer human tumor 996289-038-R-J1-PDC cell line growth inhibition [PI3K]; active means viability on the fitted dose curve at most 10% of control; inactive means the rest;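 further: spheroids exposed to compounds for seven days before viability read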
CONDITION_DETAILS: second compound 0.1 µM; first compound 10 µM; spheroids with HUVEC and MSC
Assign a class; possible classes are active, inactive

# count of solved cases: 4
Cn1nccc1Nc1nccc(-c2ccn(C(CO)c3ccc(Cl)c(F)c3)c(=O)c2)n1 (centres undefined) + CC(Nc1ncnc2nc[nH]c12)c1cc2cccc(Cl)c2c(=O)n1-c1ccccc1    inactive
Cn1ncc(Cl)c1-c1cc(C(=O)NC(CN)Cc2cccc(F)c2)sc1Cl (centres undefined) + CC(Nc1ncnc2nc[nH]c12)c1cc2cccc(Cl)c2c(=O)n1-c1ccccc1    inactive
CC(C)NCC(C(=O)N1CCN(c2ncnc3c2C(C)CC3O)CC1)c1ccc(Cl)cc1 (centres undefined) + Cc1nc(NC(=O)N2CCCC2C(N)=O)sc1-c1ccnc(C(C)(C)C(F)(F)F)c1    inactive
CC1(C)CCC(Nc2ncc(C(F)(F)F)c(-c3c[nH]c4c(P(C)(C)=O)c(C#N)ccc34)n2)CN1 (centres undefined) + COc1c(OCCCN2CCOCC2)ccc2c3n(c(=NC(=O)c4cnc(N)nc4)nc12)CCN3    active

### Prompt Write down the call the test reported for this compound. Item: CC(Cn1ccc(-c2ccc(C#N)c(Cl)c2)n1)NC(=O)c1cc(C(C)O)[nH]n1 (centres undefined) + Cc1nc(NC(=O)N2CCCC2C(N)=O)sc1-c1ccnc(C(C)(C)C(F)(F)F)c1
### Response inactive

### Prompt Write down the call the test reported for this compound. Item: CC1(C)CCC(CN2CCN(c3ccc(C(=O)NS(=O)(=O)c4ccc(NCC5CCOCC5)c([N+](=O)[O-])c4)c(Oc4cnc5[nH]ccc5c4)c3)CC2)=C(c2ccc(Cl)cc2)C1 + COc1c(OCCCN2CCOCC2)ccc2c3n(c(=NC(=O)c4cnc(N)nc4)nc12)CCN3
### Response inactive

### Prompt Write down the call the test reported for this compound. Item: CNC(=O)c1ccc(N2C(=S)N(c3ccc(C#N)c(C(F)(F)F)c3)C(=O)C2(C)C)cc1F + CC(Nc1ncnc2nc[nH]c12)c1cc2cccc(Cl)c2c(=O)n1-c1ccccc1
### Response inactive

### Prompt Write down the call the test reported for this compound. Item: CC(C)NCC(C(=O)N1CCN(c2ncnc3c2C(C)CC3O)CC1)c1ccc(Cl)cc1 (centres undefined) + CC(Nc1ccc2c(c1)OCCn1cc(N3C(=O)OCC3C(F)F)nc1-2)C(N)=O
### Response inactive

### Prompt Write down the call the test reported for this compound. Item: C=CC(=O)N1CCN(c2nc(=O)n(-c3c(C)ccnc3C(C)C)c3nc(-c4c(O)cccc4F)c(F)cc23)C(C)C1 (centres undefined) + Cc1nc(NC(=O)N2CCCC2C(N)=O)sc1-c1ccnc(C(C)(C)C(F)(F)F)c1
### Response inactive

---

Tested on: 996289-038-R-J1-PDC spheroid viability
TEST_NAME: Anticancer human tumor 996289-038-R-J1-PDC cell line growth inhibition [PI3K];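 further: spheroids exposed to compounds for seven days before viability read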;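 on viability, T/C: luminescence used as a proxy for viable cell amount; percent viability relative to DMSO vehicle control as 100%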
CONDITION_DETAILS: second compound 0.0316 µM; first compound 0.1 µM; stronger effect = lower value; spheroids with HUVEC and MSC
VALUE_TYPE: viability, T/C (%)
Record the value in %, omitting the unit from your answer.

Example entries begin here.
Cn1nccc1Nc1nccc(-c2ccn(C(CO)c3ccc(Cl)c(F)c3)c(=O)c2)n1 (centres undefined) + COc1c(OCCCN2CCOCC2)ccc2c3n(c(=NC(=O)c4cnc(N)nc4)nc12)CCN3    80.1
CC1(C)CCC(CN2CCN(c3ccc(C(=O)NS(=O)(=O)c4ccc(NCC5CCOCC5)c([N+](=O)[O-])c4)c(Oc4cnc5[nH]ccc5c4)c3)CC2)=C(c2ccc(Cl)cc2)C1 + CC(Nc1ccc2c(c1)OCCn1cc(N3C(=O)OCC3C(F)F)nc1-2)C(N)=O    88.2
CC1(C)CCC(CN2CCN(c3ccc(C(=O)NS(=O)(=O)c4ccc(NCC5CCOCC5)c([N+](=O)[O-])c4)c(Oc4cnc5[nH]ccc5c4)c3)CC2)=C(c2ccc(Cl)cc2)C1 + Cc1nc(NC(=O)N2CCCC2C(N)=O)sc1-c1ccnc(C(C)(C)C(F)(F)F)c1    91.8
CNC(=O)c1ccc(N2C(=S)N(c3ccc(C#N)c(C(F)(F)F)c3)C(=O)C2(C)C)cc1F + COc1c(OCCCN2CCOCC2)ccc2c3n(c(=NC(=O)c4cnc(N)nc4)nc12)CCN3    78
CCN1CCN(Cc2ccc(Nc3ncc(F)c(-c4cc(F)c5nc(C)n(C(C)C)c5c4)n3)nc2)CC1 + Cc1nc(NC(=O)N2CCCC2C(N)=O)sc1-c1ccnc(C(C)(C)C(F)(F)F)c1    78.7

### Prompt Note viability, T/C for the molecule shown: C[C@@H](NC(=O)c1ncnc(N)c1Cl)c1ncc(C(=O)Nc2cc(C(F)(F)F)c(Cl)cn2)s1 + Cc1nc(NC(=O)N2CCCC2C(N)=O)sc1-c1ccnc(C(C)(C)C(F)(F)F)c1
### Response 89.8

### Prompt Note viability, T/C for the molecule shown: C=CC(=O)N1CCN(c2nc(=O)n(-c3c(C)ccnc3C(C)C)c3nc(-c4c(O)cccc4F)c(F)cc23)C(C)C1 (centres undefined) + COc1c(OCCCN2CCOCC2)ccc2c3n(c(=NC(=O)c4cnc(N)nc4)nc12)CCN3
### Response 88.3

### Prompt Note viability, T/C for the molecule shown: CC(Cn1ccc(-c2ccc(C#N)c(Cl)c2)n1)NC(=O)c1cc(C(C)O)[nH]n1 (centres undefined) + CC(Nc1ncnc2nc[nH]c12)c1cc2cccc(Cl)c2c(=O)n1-c1ccccc1
### Response 89.9

### Prompt Note viability, T/C for the molecule shown: CC(Cn1ccc(-c2ccc(C#N)c(Cl)c2)n1)NC(=O)c1cc(C(C)O)[nH]n1 (centres undefined) + COc1c(OCCCN2CCOCC2)ccc2c3n(c(=NC(=O)c4cnc(N)nc4)nc12)CCN3
### Response 79.4

Reference for the values: PubChem BioAssay AID1963965
